Listed next: entries and their corresponding protein stability index.
B1: PBXIP1 (parent)
chain: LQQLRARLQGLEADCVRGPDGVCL

Variants of: B1
Assay: protein stability index of a GFP-peptide fusion (GPS, HEK-293T) (PSI 1-6); higher = more stable;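 further: lentivirally expressed fusions sorted by FACS into six bins by GFP to DsRed ratio, PSI derived from sequencing read proportions per bin multiplied by bin number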
Settings: c terminus: a fixed tail appended

sequence-variant	protein stability index
L8E	5.35
L4D	4.69
L8N	3.94
E12D	2.23
L24N	3.04
G18D	3.74
R5S	2.76
R17Y	2.47
D20T	2.12
G21T	1.99
L11Y	2.75
Q3T	1.2
A13I	1.34
G21I	1.75
C15I	1.87
A13K	2.52
D20P	1.5
E12V	2.79
R7Y	1.73
P19R	1.41
E12Y	2.73
R7T	2.52
G18H	2.39
